In this section, each of the binders is paired with its reported TOP MFI.
Target: T1, human LAG3, full length, stably expressed on cells (human, UniProt P18627 23-525)
T1 construct: whole, on cells; also called CHOK1-human LAG3
T1 sequence (looked up): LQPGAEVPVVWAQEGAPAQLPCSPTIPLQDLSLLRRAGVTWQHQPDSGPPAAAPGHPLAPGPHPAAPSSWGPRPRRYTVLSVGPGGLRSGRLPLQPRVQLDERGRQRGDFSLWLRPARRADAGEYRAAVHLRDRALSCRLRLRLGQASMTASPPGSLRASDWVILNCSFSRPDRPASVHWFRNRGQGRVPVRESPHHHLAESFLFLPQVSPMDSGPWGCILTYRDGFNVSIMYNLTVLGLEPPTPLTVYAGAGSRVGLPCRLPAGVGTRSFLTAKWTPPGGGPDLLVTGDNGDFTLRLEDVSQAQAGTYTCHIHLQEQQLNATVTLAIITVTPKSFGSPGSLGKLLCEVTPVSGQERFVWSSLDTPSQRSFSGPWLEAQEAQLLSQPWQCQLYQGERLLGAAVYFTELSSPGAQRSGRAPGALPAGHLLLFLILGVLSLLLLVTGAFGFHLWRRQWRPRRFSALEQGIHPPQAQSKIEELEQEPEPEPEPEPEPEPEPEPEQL
Assay: FACS on 293F cells stably expressing human LAG3
Just the number, please, no unit attached.

The examples below pair each entry with its known result.
binder	TOP MFI
039c (antibody, human IgG4, V domains shown, human IgG4 S228P / kappa chimeric antibody; also called chimeric antibody 039; not shown: human kappa light chain constant region (pcDNA3.4-hIgGk vector)) VH: EFQLQQSGPELVKPGASVKISCKASGYSFTDYNLNWVRQSNGKSLEWIGLVDPIYGTIRYNQNFKDKATLTVDQSSSTAYMQLNSLTSEDSAVYYCASIMTAVRYFDHWGQGTTLTVSS VL: DVLMTQTPLFLPVSLGDQASISCRSSLNIVHSDGNTYLEWYLQKPGQSPKLLIYKVSNRFSGVPDRFSGSGSGTDFTLKISGVEAEDLGVYYCFQGSHVPPTFGGGTKLEIK	302
024c (antibody, human IgG4, V domains shown, human IgG4 S228P / kappa chimeric antibody; also called chimeric antibody 024; not shown: human kappa light chain constant region (pcDNA3.4-hIgGk vector)) VH: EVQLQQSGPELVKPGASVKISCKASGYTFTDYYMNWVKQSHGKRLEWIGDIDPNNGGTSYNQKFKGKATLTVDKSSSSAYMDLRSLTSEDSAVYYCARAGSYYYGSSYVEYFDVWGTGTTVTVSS VL: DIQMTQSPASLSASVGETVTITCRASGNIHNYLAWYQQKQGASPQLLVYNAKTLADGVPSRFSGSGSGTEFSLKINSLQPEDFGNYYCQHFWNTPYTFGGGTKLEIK	346
047c (antibody, human IgG4, V domains shown, human IgG4 S228P / kappa chimeric antibody; also called chimeric antibody 047; not shown: human kappa light chain constant region (pcDNA3.4-hIgGk vector)) VH: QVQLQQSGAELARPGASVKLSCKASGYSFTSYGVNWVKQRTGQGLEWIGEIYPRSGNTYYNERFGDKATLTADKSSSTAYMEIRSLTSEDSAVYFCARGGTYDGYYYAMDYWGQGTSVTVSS VL: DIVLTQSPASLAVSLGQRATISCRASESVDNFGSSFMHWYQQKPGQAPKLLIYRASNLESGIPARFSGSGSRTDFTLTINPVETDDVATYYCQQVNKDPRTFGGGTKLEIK	249
BAP-050 (antibody, V domains shown, also called BAP-50) VH: QIQLVQSGPELKKPGETVKISCKASGFTLTNYGMNWVRQTPGKGLKWMGWINTDTGEPTYADDFKGRFAFSLETSASTASLQINNLKNADTATYFCARNPPYYYGTNNAEAMDYWGQGTAVTVSS VL: DIQMTQTTSSLSASLGDRVTISCSSSQDISNYLNWYQQKPDGTVKVLIYYTSTLHLGVPSRFSGSGSGTDYSLTISNLELEDIATYYCQQYYNLPWTFGGGTKLEIK	267
035c (antibody, human IgG4, V domains shown, human IgG4 S228P / kappa chimeric antibody; also called chimeric antibody 035; not shown: human kappa light chain constant region (pcDNA3.4-hIgGk vector)) VH: QVQLQQSGAELARPGASVKLSCKASGYSFTSYGINWVKQRTGQGLEWIGEIYPRSGNTYYNEKFKDKATLTADKSSSTAYMELRSLTSEDSAVYFCARGGTYDGYYYAMDFWGQGTSVTVSS VL: DIVLTQSPASLAVSLGQRATISCRASESVDNFGSSFLHWYQQKPGQAPKLLIYRASNLESGIPARFSGSGSRTDFTLTINPVETDDVATYYCQQVNKDPRTFGGGTKLEIK	333
015c (antibody, human IgG4, V domains shown, human IgG4 S228P / kappa chimeric antibody; also called chimeric antibody 015; not shown: human kappa light chain constant region (pcDNA3.4-hIgGk vector)) VH: EVQLQQSGPVLVKPGASVKLSCKASGFTFTDYYMNWVKLSHGKSLEWIGVINPFNGDTAYKQKFKGKATLTVDKSSSTAYMELNSLTSEDSAVYYCARDDGYYLYYFDSWGQGTTLTVSS VL: DIQMTQSPSSLSASLGERVSLTCRASQDIGSRLNWLQQEPDGTIKRLIYATSSLDSGVPKRFSGSRSGSDYSLTISSLDSEDFVVYYCLQYASSPPTFGAGTKLELK	296
029c (antibody, human IgG4, V domains shown, human IgG4 S228P / kappa chimeric antibody; also called chimeric antibody 029; not shown: human kappa light chain constant region (pcDNA3.4-hIgGk vector)) VH: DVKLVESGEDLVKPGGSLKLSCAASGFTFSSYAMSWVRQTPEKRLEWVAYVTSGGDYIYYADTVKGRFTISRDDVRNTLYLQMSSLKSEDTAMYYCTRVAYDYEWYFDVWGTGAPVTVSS VL: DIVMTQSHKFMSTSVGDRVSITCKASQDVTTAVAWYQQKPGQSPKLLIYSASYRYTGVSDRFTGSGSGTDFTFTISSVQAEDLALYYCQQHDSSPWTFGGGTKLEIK	416
048c (antibody, human IgG4, V domains shown, human IgG4 S228P / kappa chimeric antibody; also called chimeric antibody 048; not shown: human kappa light chain constant region (pcDNA3.4-hIgGk vector)) VH: EFQVQQSGPELVKPGASVKISCKASGYSFSDYNMNWLKQSTGKSLEWIGLVDPIYGTIRYNQKFKGKATLTVDQSSSTAYMQLNSLTSEDSAVYYCALITTSVRYFDYWGQGTTLTVSS VL: DVLMTQTPLSLPVSLGDQASISCRSSQNIVHTDGNTYLEWYLQKPGQSPKLLIYKVSNRFSGVPDRFSGSGSGTDFTLKISRVEAEDLGVYYCFQGSHVPPTFGGGTKLEIK	289

Record summary for TSR-033 (antibody, V domains shown) VH: EVQLVQSGAEVKKPGATVKISCKASGFSIKDDYIHWVQQAPGKGLEWMGWIDAMNDDSQYSSKFQGRVTITVDTSTNTAYMKLSSLRSEDTAVYYCTYAFGGYWGQGTTVTVSS VL: DIVMTQTPLSLSVTPGQPASISCRSSQSLVHSDSNTYLHWYLQKPGQSPQLLIYLVSNRFSGVPDRFSGSGSGTDFTLKISRVEAEDVGVYFCGQSTHVPYAFGGGTKVEIK : reported TOP MFI = 247

Record summary for 027c (antibody, human IgG4, V domains shown, human IgG4 S228P / kappa chimeric antibody; also called chimeric antibody 027; not shown: human kappa light chain constant region (pcDNA3.4-hIgGk vector)) VH: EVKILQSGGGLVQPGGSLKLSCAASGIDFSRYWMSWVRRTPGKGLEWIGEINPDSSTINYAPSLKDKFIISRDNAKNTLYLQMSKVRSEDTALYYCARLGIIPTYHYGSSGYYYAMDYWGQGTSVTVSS VL: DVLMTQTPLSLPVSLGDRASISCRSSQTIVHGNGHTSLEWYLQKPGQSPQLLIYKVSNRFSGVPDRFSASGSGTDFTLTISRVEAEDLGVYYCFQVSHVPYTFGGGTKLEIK : reported TOP MFI = 302

Record summary for 057c (antibody, human IgG4, V domains shown, human IgG4 S228P / kappa chimeric antibody; also called chimeric antibody 057; not shown: human kappa light chain constant region (pcDNA3.4-hIgGk vector)) VH: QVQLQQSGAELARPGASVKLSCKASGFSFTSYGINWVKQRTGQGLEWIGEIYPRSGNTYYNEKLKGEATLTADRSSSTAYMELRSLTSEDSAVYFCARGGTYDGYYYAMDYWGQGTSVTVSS VL: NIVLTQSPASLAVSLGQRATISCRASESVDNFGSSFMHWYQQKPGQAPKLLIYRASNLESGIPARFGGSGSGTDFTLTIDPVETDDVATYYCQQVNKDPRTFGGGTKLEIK : reported TOP MFI = 337
